test system: MDA-MB-468; assay: Antiproliferative activity against human MDA-MB-468 cells at 10 uM assessed as cell growth inhibition relative to control; format: functional; conditions: values are per cent of control
Define the label as Met when growth, % of control at 10 µM is strictly less than 80% and as Not met in all remaining cases.

INSERT INTO assay_data (compound_structure, assigned_class) VALUES
  ('CCOC(=O)C[C@H]1[C@@H](O[Si](C)(C)C(C)(C)C)[C@H](n2cnc3c(NC(=O)Nc4ccccc4)ncnc32)O[C@@H]1CN=[N+]=[N-]', 'Not met'),
  ('CCOC(=O)C=C1[C@@H](O[Si](C)(C)C(C)(C)C)[C@H](n2cnc3c(N)ncnc32)O[C@@H]1CNC(=O)NC', 'Met'),
  ('CCOC(=O)C[C@H]1[C@@H](O[Si](C)(C)C(C)(C)C)[C@H](n2cnc3c(NC(=O)Nc4ccccc4)ncnc32)O[C@@H]1COC(=O)NC', 'Met'),
  ('CCOC(=O)C[C@H]1[C@@H](O[Si](C)(C)C(C)(C)C)[C@H](n2cnc3c(N)ncnc32)O[C@@H]1CO', 'Not met'),
  ('CNC(=O)NC[C@H]1O[C@@H](n2cnc3c(NC(=O)Nc4ccccc4)ncnc32)[C@H](O[Si](C)(C)C(C)(C)C)[C@@H]1O[Si](C)(C)C(C)(C)C', 'Met'),
  ('CCOC(=O)C[C@H]1[C@@H](O[Si](C)(C)C(C)(C)C)[C@H](n2cnc3c(N)ncnc32)O[C@@H]1COC(=O)NC', 'Met'),
  ('CCOC(=O)C[C@H]1[C@@H](O[Si](C)(C)C(C)(C)C)[C@H](n2cnc3c(N)ncnc32)O[C@@H]1CNC(=O)NC', 'Not met');

* * *

tested on: BT-549; test: Antiproliferative activity against human BT549 cells at 10 uM assessed as cell growth inhibition relative to control; type: functional; conditions: values are per cent of control
Define the label as class 1 when growth, % of control at 10 µM is strictly less than 70% and as class 0 in all remaining cases.

INSERT INTO measurements (compound_structure, assay_target, assigned_class) VALUES
  ('CCOC(=O)C[C@H]1[C@@H](O[Si](C)(C)C(C)(C)C)[C@H](n2cnc3c(N)ncnc32)O[C@@H]1COC(=O)NC', 'BT-549', 'class 0'),
  ('CCOC(=O)C=C1[C@@H](O[Si](C)(C)C(C)(C)C)[C@H](n2cnc3c(N)ncnc32)O[C@@H]1CNC(=O)NC', 'BT-549', 'class 0'),
  ('CCOC(=O)C[C@H]1[C@@H](O[Si](C)(C)C(C)(C)C)[C@H](n2cnc3c(NC(=O)Nc4ccccc4)ncnc32)O[C@@H]1CN=[N+]=[N-]', 'BT-549', 'class 0'),
  ('CNC(=O)NC[C@H]1O[C@@H](n2cnc3c(NC(=O)Nc4ccccc4)ncnc32)[C@H](O[Si](C)(C)C(C)(C)C)[C@@H]1O[Si](C)(C)C(C)(C)C', 'BT-549', 'class 1'),
  ('CCOC(=O)C[C@H]1[C@@H](O[Si](C)(C)C(C)(C)C)[C@H](n2cnc3c(N)ncnc32)O[C@@H]1CNC(=O)NC', 'BT-549', 'class 0'),
  ('CCOC(=O)C[C@H]1[C@@H](O[Si](C)(C)C(C)(C)C)[C@H](n2cnc3c(NC(=O)Nc4ccccc4)ncnc32)O[C@@H]1COC(=O)NC', 'BT-549', 'class 1'),
  ('CCOC(=O)C[C@H]1[C@@H](O[Si](C)(C)C(C)(C)C)[C@H](n2cnc3c(N)ncnc32)O[C@@H]1CO', 'BT-549', 'class 0');
